The measured values listed here are drawn from ChEMBL document CHEMBL1201862.

Tested on: 786-0
Experiment: NCI tumour cell line growth inhibition, 48 h
Active and inactive are the calls of the source. No stated cut-off is given here; in the data, active = GI50 up to about 1.1 µM and inactive = higher.
Parameter GI50: see the listing below.

Observe how each entry below is paired with its result.
[
  {
    "MOLECULE": "C[C@]12CC[C@H]3[C@@H](CC=C4C[C@@H](O)CC[C@@]43C)[C@@H]1C[C@H](N1CCOCC1)[C@@H]2O",
    "REPORTED_METRIC": "GI50",
    "MEASUREMENT": "81.5 µM (inactive)"
  },
  {
    "MOLECULE": "Cc1cc(N(CCC#N)CCC#N)ccc1C(/N=N/c1ccccc1)=N\\NC(=O)c1ccccc1",
    "REPORTED_METRIC": "GI50",
    "MEASUREMENT": "25.5 µM (inactive)"
  },
  {
    "MOLECULE": "Cc1cccc(C)c1Nc1nc(C)c(C(=O)CC(=O)C(=O)Nc2c(C(C)C)cccc2C(C)C)s1",
    "REPORTED_METRIC": "GI50",
    "MEASUREMENT": "> 100 µM (inactive)"
  },
  {
    "MOLECULE": "Nc1ncnc2c1ncn2C1CC(OCc2ccccc2[N+](=O)[O-])C(CO)O1 (centres undefined)",
    "REPORTED_METRIC": "GI50",
    "MEASUREMENT": "43.4 µM (inactive)"
  },
  {
    "MOLECULE": "OC(CCl)CN1CC[N+]2(CC1)CC[N+]1(CCN(CC(O)CCl)CC1)CC2 (centres undefined) [PROSPIDIUM CHLORIDE]",
    "REPORTED_METRIC": "GI50",
    "MEASUREMENT": "> 50 µM (inactive)"
  }
]

// next item, GI50 requested
# lookup: GI50 of COc1cc(Nc2cnc3ccc(C(F)(F)F)cc3n2)cc(OC)c1OC
13.5 µM (inactive)
